assay: VP16 counterscreen qHTS for inhibitors of ROR gamma transcriptional activity; conditions: Drosophila S2 Gal4-VP16 UAS-luciferase, luminescence, 20 h; series mostly up to 53.6 µM;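 further: Gal4-VP16 expression switched on by copper sulfate through the metallothionein promoter; nearly all actives have a fitted effect of over 50% in size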
Screen size: about 310,000 compounds; about 11,000 (3.5%) were called active. About 8% were inconclusive and are not listed. The call rests on the fitted dose curve; in most records, active means well fitted inhibition curve with a large enough effect; inconclusive means small, poorly fitted or top-dose-only effect, or effect the other way; inactive means flat fitted curve, though single readings scatter. Only a selection was taken, and actives are over-represented in it overall.
Outcome (select one): active, inactive

What did the test return for Cc1csc(-c2coc3cc(O[C@@H]4O[C@H](CO)[C@@H](O)[C@@H](O)[C@H]4O)ccc3c2=O)n1 ? active

What did the test return for CCOc1ncccc1C(=O)NCCc1ccc(OC)cc1 ? inactive

What did the test return for COc1ccc(NC2CCCN(C(=O)c3ccncc3)C2)cc1 (stereo not given) ? inactive

What did the test return for CC1CCN(S(=O)(=O)c2ccc3c(ccn3CC(=O)O)c2)CC1 ? inactive

What did the test return for CCc1ccc(OCC(=O)NCC(c2ccc(Cl)cc2)N2CCCCC2)cc1 (stereo not given) ? inactive

What did the test return for C[C@H](C(=O)CC(=O)OC(C)(C)C)[C@H](O)c1ccc(C(F)(F)F)cc1 ? inactive

What did the test return for CCOC(=O)C(Cc1ccccc1)NC(=O)CCC(=O)c1ccc(OC)cc1 (stereo not given) ? inactive

What did the test return for Cc1nnc2n1N=C(c1ccccc1)CS2 ? inactive

What did the test return for CN(C)CCCNC(=S)NCc1ccc(Cl)cc1 ? inactive

What did the test return for O=C(NCc1ccc(Cl)cc1)NCc1ccc(Cl)cc1 ? inactive

What did the test return for Cc1nc(NC(=O)c2ccc3c(c2)OCCO3)ccc1Br ? inactive

What did the test return for O=C(CCc1nnc(Cc2ccc3c(c2)OCO3)o1)NCCc1ccccc1Cl ? inactive

What did the test return for CCCc1ccc(OCC(O)CN2CCN(C(=O)OCC)CC2)cc1 (stereo not given) ? inactive

What did the test return for COc1ccc(/C=N/NC(=O)c2ccc3c(c2)OCCO3)c(OC)c1 ? inactive

What did the test return for COc1cccc(C(=O)CC(=O)C(=O)Nc2ccc([N+](=O)[O-])cc2C)c1 ? inactive

What did the test return for CCc1cccc(OC2OC(CO)C(O)C(O)C2NC(C)=O)c1 (stereo not given) ? inactive

What did the test return for COc1cc(/C=C/CO)cc(OC)c1O[C@@H]1O[C@H](CO)[C@@H](O)[C@H](O)[C@H]1O ? inactive

What did the test return for CSCC[C@H](NC(=O)N1CCn2c1nc1ccccc12)C(=O)NC1CCCCC1 ? inactive

What did the test return for COc1ccc(CNC(=O)CN(Cc2ccccc2Cl)C(=O)c2csnn2)cc1 ? inactive

What did the test return for COC(=O)c1c(NC(=O)COc2ccc(Cl)cc2Cl)sc2c1CC(C)(C)NC2(C)C ? active

What did the test return for Cc1ccc2nc(SCC(=O)NC3CCCC3)[nH]c2c1 ? inactive

What did the test return for Cc1ccc(CS(=O)(=O)c2ncc(Cl)c(C(=O)Nc3nnc(C)s3)n2)cc1 ? active

What did the test return for O=C(NCc1ccncc1)NC12CC3CC(CC(C3)C1)C2 ? inactive

What did the test return for CCSc1ncc(Cl)c(C(=O)Nc2cc(C)ccc2C)n1 ? inactive

What did the test return for COc1ccc(CN2CN(C3CCCC3)CSC2=S)cc1 ? active

What did the test return for COC(=O)c1ccc(N2CCOCC2)c(NC(=O)c2ccc(Br)o2)c1 ? inactive

What did the test return for Cc1cc(N/N=C/c2ccccc2F)c2ccccc2n1 ? inactive

What did the test return for Cc1nnc(NC(=O)Nc2ccc(Cl)c(Cl)c2)s1 ? inactive

What did the test return for Cc1cccc(NC(=O)c2nc(S(=O)(=O)Cc3ccccc3)ncc2Cl)c1 ? active

What did the test return for COC(=O)[C@H](Cc1ccccc1)NC(=O)Nc1ccc(OC)cc1 ? inactive

What did the test return for COC(=O)c1cc(NS(=O)(=O)c2ccc3c(c2)c(=O)n(C)c(=O)n3C)cc(C(=O)OC)c1 ? inactive

What did the test return for Cc1cccc(NC(=O)C(C)SCc2ccccc2)c1 (stereo not given) ? inactive

What did the test return for CCn1c(=O)cc(OCC(=O)NCCCN2CCN(c3cccc(Cl)c3)CC2)c2ccccc21 ? inactive

What did the test return for CN(C)S(=O)(=O)c1ccc(Oc2ccc(S(=O)(=O)N(C)C)cc2)cc1 ? active

What did the test return for O=C(NC1CC1)C(Cc1ccccc1)NS(=O)(=O)c1ccccc1F (stereo not given) ? inactive

What did the test return for CCSc1nc2sc3c(c2c(=O)n1-c1ccc(C)cc1)CCN(C)C3 ? inactive

What did the test return for COc1cc(/C=N/Nc2nn3cnnc3c3ccccc23)cc(OC)c1OC ? inactive

What did the test return for Cc1ccc(C(=O)Nc2nnc(C3=COCCO3)o2)cc1C ? active

What did the test return for COc1ccc(S(=O)(=O)N2CCC(C(=O)NCc3ccco3)CC2)cc1C ? inactive

What did the test return for COc1ccc(C(=O)CSc2nc(C)cc(C)n2)cc1[N+](=O)[O-] ? inactive

What did the test return for COc1ccc(OCc2cn3c(C)cc(C)nc3n2)cc1 ? inactive

What did the test return for COc1ccc(Cl)cc1C(=O)NNC(=S)NC1CCCC1 ? inactive

What did the test return for O=C(Nc1cn(-c2ccccc2)nc1-c1ccccc1)c1ccccc1 ? inactive

What did the test return for O=C(CCCC(=O)N1CCN(c2cccc(Cl)c2)CC1)c1ccccc1 ? inactive

What did the test return for COc1cc([C@H](Cc2ccccc2)NC(C)=O)oc(=O)c1 ? active
